# Tested on: Trypanosoma cruzi
# Experimental Details: Antitrypanosomal activity against Trypanosoma cruzi Tulahuen 2 epimastigotes assessed as growth inhibition after 5 days
# Type: functional, organism-based
# Measurement Conditions: Trypanosoma cruzi, Tulahuen 2, 120 h

Molecule: C=CCn1c(C)cs/c1=N\N=C\c1ccc([N+](=O)[O-])s1
Measurement Units: µM
Result Modifier: =
IC50: 10

Molecule: Br.C=CCn1c(-c2ccc3ccccc3c2)cs\c1=N/N=C/C=C/c1ccco1
Measurement Units: µM
Result Modifier: =
IC50: 2.4

Molecule: C=CCn1c(-c2ccccc2)cs/c1=N\N=C\c1ccc(S(=O)(=O)O)o1
Measurement Units: µM
Result Modifier: >
IC50: 25

Molecule: O=[N+]([O-])c1ccc(/C=N/NC(=S)Nc2ccccc2)s1
Measurement Units: µM
Result Modifier: =
IC50: 4

Molecule: CC(=O)N(C1=NN(C(C)=O)C(c2cccs2)S1)c1ccccc1 (stereo not given)
Measurement Units: µM
Result Modifier: >
IC50: 25

---

# Tested on: Salmonella typhimurium
# Experimental Details: Mutagenic activity in Salmonella typhimurium TA98 at 5 to 400 ug/plate by Ames test in presence of mouse liver S9 fraction
# Format: toxicity, organism-based
# Measurement Conditions: salmonella enterica subsp. enterica serovar typhimurium

Structure As Smiles: Br.C=CCn1c(-c2ccc([N+](=O)[O-])cc2)cs\c1=N/N=C/C=C/c1ccco1
Target Under Test: Salmonella typhimurium
Activity: Toxic
//
Structure As Smiles: C=CCn1c(-c2ccc(OC)cc2)cs\c1=N/N=C/C=C/c1ccco1
Target Under Test: Salmonella typhimurium
Activity: Non-toxic
//
Structure As Smiles: Br.C=CCn1c(-c2ccc(Br)cc2)cs\c1=N/N=C/C=C/c1ccco1
Target Under Test: Salmonella typhimurium
Activity: Non-toxic
//
Structure As Smiles: Br.C=CCn1c(-c2ccc(Cl)cc2)cs\c1=N/N=C/C=C/c1ccco1.O
Target Under Test: Salmonella typhimurium
Activity: Non-toxic
//
Structure As Smiles: C=CCNC(=S)N/N=C/C=C/c1cccs1
Target Under Test: Salmonella typhimurium
Activity: Non-toxic

---

# System: Salmonella typhimurium
# Experimental Details: Mutagenic activity in Salmonella typhimurium TA98 at 5 to 400 ug/plate by Ames test
# Format: toxicity, organism-based
# Measurement Conditions: salmonella enterica subsp. enterica serovar typhimurium

Structure As Smiles: Br.C=CCn1c(-c2ccc(Br)cc2)cs\c1=N/N=C/C=C/c1ccco1
Activity: Non-toxic
//
Structure As Smiles: C=CCN1C(=O)CS\C1=N/N=C/C=C/c1cccs1
Activity: Toxic
//
Structure As Smiles: C=CCn1c(-c2ccc(OC)cc2)cs\c1=N/N=C/C=C/c1ccco1
Activity: Non-toxic
//
Structure As Smiles: Br.C=CCn1c(-c2ccc([N+](=O)[O-])cc2)cs\c1=N/N=C/C=C/c1ccco1
Activity: Toxic
//
Structure As Smiles: Br.C=CCn1c(-c2ccc(Cl)cc2)cs\c1=N/N=C/C=C/c1ccco1.O
Activity: Non-toxic
//
Structure As Smiles: C=CCNC(=S)N/N=C/C=C/c1cccs1
Activity: Non-toxic

---

# Experimental Details: Selectivity index, ratio of IC50 for human RBC to IC50 for Trypanosoma cruzi Sylvio X-10 amastigotes
Items are presented alongside their recorded Ratio IC50.

Structure As Smiles: Br.C=CCn1c(-c2ccc(Cl)cc2)cs\c1=N/N=C/C=C/c1ccco1.O
Ratio IC50: > 234
//
Structure As Smiles: C=CCNC(=S)N/N=C/C=C/c1ccc([N+](=O)[O-])s1
Ratio IC50: 82
//
Structure As Smiles: Br.C=CCn1c(-c2ccccc2)cs\c1=N/N=C/C=C/c1ccco1.O
Ratio IC50: > 196

---

# Tested on: Trypanosoma cruzi
# Experimental Details: Antitrypanosomal activity against Trypanosoma cruzi Tulahuen 2 epimastigotes assessed as growth inhibition after 5 days
# Format: functional, organism-based
Observable: IC50

Molecule: O=C1CS/C(=N\N=C\c2ccc([N+](=O)[O-])s2)N1c1ccccc1 (stereo in doubt; 13)
Observable: IC50
Result: > 25 µM

---

# Experimental Details: Selectivity index, ratio of IC50 for mouse J774.1 cells to IC50 for Trypanosoma cruzi Tulahuen 2 epimastigotes
# Format: toxicity
# Measurement Conditions: read-out: Ratio IC50
Observable: selectivity ratio

Structure As Smiles: C=CCn1c(C)cs\c1=N/N=C/C=C/c1cccs1
Result: < 7

---

# Tested on: Trypanosoma cruzi
# Experimental Details: Antitrypanosomal activity against Trypanosoma cruzi Sylvio X-10 amastigotes infected in African green monkey Vero cells assessed as eradication of amastigotes after 72 hrs by Giemsa staining-based assay
# Measurement Conditions: Sylvio X-10, Vero

Molecule: C=CCn1c(C)cs/c1=N/N=C/C=C/c1ccco1
IC90: 51 µM
--
Molecule: C=CCn1c(-c2ccc(OC)cc2)cs/c1=N/N=C/c1ccc([N+](=O)[O-])s1
IC90: > 25 µM
--
Molecule: C=CCNC(=S)N/N=C/C=C/C=C/c1cccs1
IC90: > 25 µM
--
Molecule: C=CCn1c(C)cs/c1=N\N=C\c1cccs1
IC90: > 25 µM
--
Molecule: O=C1CS/C(=N\N=C\c2ccc([N+](=O)[O-])s2)N1c1ccccc1 (stereo in doubt; 10)
IC90: > 25 µM
--
Molecule: S=C(N/N=C/C=C/C=C/c1cccs1)Nc1ccccc1
IC90: > 25 µM
--
Molecule: C=CCN1C(=O)CS/C1=N\N=C\c1ccc([N+](=O)[O-])s1
IC90: > 25 µM
--
Molecule: Br.C=CCn1c(-c2ccc(Cl)cc2)cs\c1=N/N=C/C=C/C=C/c1cccs1
IC90: > 25 µM
--
Molecule: C=CCn1c(-c2ccc(Cl)cc2)cs/c1=N/N=C/c1ccc([N+](=O)[O-])s1
IC90: > 25 µM
--
Molecule: C=CCn1c(-c2ccc(Cl)cc2)cs\c1=N/N=C/C=C/c1ccc([N+](=O)[O-])s1
IC90: 25.4 µM
--
Molecule: C=CCNc1nnc(-c2ccc([N+](=O)[O-])s2)s1
IC90: 15.9 µM

---

# Tested on: Trypanosoma cruzi
# Experimental Details: Antitrypanosomal activity against Trypanosoma cruzi Tulahuen 2 epimastigotes assessed as growth inhibition after 5 days
# Type: functional, organism-based
# Measurement Conditions: Trypanosoma cruzi, Tulahuen 2, 120 h

Compound: C=CCn1c(-c2ccc(Cl)cc2)cs/c1=N/N=C/c1cccs1
Result Modifier: >
IC50, µM: 25

Compound: Br.C=CCn1c(-c2ccc(Cl)cc2)cs\c1=N/N=C/C=C/c1ccco1.O
Result Modifier: =
IC50, µM: 1.3

Compound: C=CCn1c(-c2ccc(Cl)cc2)cs/c1=N\N=C\c1ccc2c(c1)[n+]([O-])c(C)c(C)[n+]2[O-]
Result Modifier: =
IC50, µM: 15

Compound: C=CCn1c(-c2ccccc2)cs\c1=N/N=C/C=C/c1ccccc1
Result Modifier: >
IC50, µM: 25

Compound: C=CCNC(=S)N/N=C/c1ccc(SC)cc1
Result Modifier: =
IC50, µM: 10

Compound: S=C(N/N=C/C=C/C=C/c1cccs1)Nc1ccccc1
Result Modifier: =
IC50, µM: 1.7

Compound: C=CCn1c(-c2ccc(Cl)cc2)cs/c1=N/N=C/c1ccc([N+](=O)[O-])s1
Result Modifier: =
IC50, µM: 14

Compound: C=CCN1C(=O)CS/C1=N\N=C\c1ccc([N+](=O)[O-])s1
Result Modifier: >
IC50, µM: 25

Compound: S=C(N/N=C/c1ccccc1)Nc1ccccc1
Result Modifier: =
IC50, µM: 19

Compound: C=CCn1c(-c2ccc(Cl)cc2)cs\c1=N/N=C/C=C/c1ccc([N+](=O)[O-])s1
Result Modifier: =
IC50, µM: 10

Compound: C=CCNC(=S)N/N=C/c1ccc2c(c1)OCO2
Result Modifier: >
IC50, µM: 25

Compound: C=CCNC(=S)N/N=C/c1ccsc1
Result Modifier: >
IC50, µM: 25

Compound: O=C1CS\C(=N/N=C/C=C/c2ccco2)N1c1ccccc1
Result Modifier: >
IC50, µM: 25

Compound: C=CCn1c(-c2ccc(Cl)cc2)cs/c1=N\N=C\c1ccsc1
Result Modifier: =
IC50, µM: 14.6

Compound: C=CCNC(=S)N/N=C/c1ccnc2ccccc12
Result Modifier: =
IC50, µM: 17

Compound: C=CCN(C(C)=O)C1=NNC(c2ccc([N+](=O)[O-])s2)S1 (stereo not drawn)
Result Modifier: >
IC50, µM: 25

Compound: CC(=O)N(C1=NN(C(C)=O)C(c2ccc([N+](=O)[O-])s2)S1)c1ccccc1 (stereo not drawn)
Result Modifier: =
IC50, µM: 2.9

Compound: C=CCNC(=S)N/N=C/c1ccc(Cl)cc1
Result Modifier: =
IC50, µM: 11

Compound: C=CCn1c(C)csc1=N/N=C/c1ccc([N+](=O)[O-])s1
Result Modifier: =
IC50, µM: 20

Compound: Br.C=CCn1c(-c2ccc(Cl)cc2)cs\c1=N/N=C/C=C/C=C/c1cccs1
Result Modifier: =
IC50, µM: 11

Compound: C=CCNC(=S)N/N=C/c1cncc(Br)c1
Result Modifier: >
IC50, µM: 25

Compound: C(=N\N=c1/scc(-c2ccccc2)n1-c1ccccc1)/c1ccccc1
Result Modifier: >
IC50, µM: 25

Compound: O=[N+]([O-])c1ccc(/C=N/N=c2\[nH]c(-c3ccc(Cl)cc3)cs2)s1
Result Modifier: =
IC50, µM: 4.9
